Reported IC50 values follow for various molecules
system_tested: PI3Kδ (p1106/p85a) Recombinant Human Protein (Homo sapiens (Human))
Sequence (O00329 whole entry): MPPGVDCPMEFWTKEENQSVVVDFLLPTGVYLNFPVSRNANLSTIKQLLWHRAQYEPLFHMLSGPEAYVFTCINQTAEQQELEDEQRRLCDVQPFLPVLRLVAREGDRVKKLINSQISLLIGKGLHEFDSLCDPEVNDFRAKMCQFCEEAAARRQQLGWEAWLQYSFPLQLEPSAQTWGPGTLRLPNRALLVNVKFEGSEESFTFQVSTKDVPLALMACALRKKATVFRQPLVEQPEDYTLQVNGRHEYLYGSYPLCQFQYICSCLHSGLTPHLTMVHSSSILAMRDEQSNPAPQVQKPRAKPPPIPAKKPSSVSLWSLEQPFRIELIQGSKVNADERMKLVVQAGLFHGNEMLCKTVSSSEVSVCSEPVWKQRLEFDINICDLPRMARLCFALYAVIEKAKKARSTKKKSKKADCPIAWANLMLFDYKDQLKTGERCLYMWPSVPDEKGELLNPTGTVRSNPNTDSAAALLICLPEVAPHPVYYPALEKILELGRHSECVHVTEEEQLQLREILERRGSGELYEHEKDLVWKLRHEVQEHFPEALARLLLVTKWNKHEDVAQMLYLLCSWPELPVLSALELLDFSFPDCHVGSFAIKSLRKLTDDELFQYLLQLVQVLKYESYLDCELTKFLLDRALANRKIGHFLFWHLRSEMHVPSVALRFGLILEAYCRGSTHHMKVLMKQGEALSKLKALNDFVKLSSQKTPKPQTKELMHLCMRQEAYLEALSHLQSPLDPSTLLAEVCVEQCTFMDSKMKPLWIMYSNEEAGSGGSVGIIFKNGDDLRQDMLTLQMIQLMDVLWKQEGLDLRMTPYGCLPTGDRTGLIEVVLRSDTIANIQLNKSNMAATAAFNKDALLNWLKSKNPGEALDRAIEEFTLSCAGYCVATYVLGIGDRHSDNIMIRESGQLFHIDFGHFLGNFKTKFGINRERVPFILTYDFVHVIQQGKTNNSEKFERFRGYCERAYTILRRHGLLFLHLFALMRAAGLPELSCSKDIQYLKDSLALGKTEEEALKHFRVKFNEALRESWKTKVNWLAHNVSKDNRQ
Sequence (P27986 whole entry partner): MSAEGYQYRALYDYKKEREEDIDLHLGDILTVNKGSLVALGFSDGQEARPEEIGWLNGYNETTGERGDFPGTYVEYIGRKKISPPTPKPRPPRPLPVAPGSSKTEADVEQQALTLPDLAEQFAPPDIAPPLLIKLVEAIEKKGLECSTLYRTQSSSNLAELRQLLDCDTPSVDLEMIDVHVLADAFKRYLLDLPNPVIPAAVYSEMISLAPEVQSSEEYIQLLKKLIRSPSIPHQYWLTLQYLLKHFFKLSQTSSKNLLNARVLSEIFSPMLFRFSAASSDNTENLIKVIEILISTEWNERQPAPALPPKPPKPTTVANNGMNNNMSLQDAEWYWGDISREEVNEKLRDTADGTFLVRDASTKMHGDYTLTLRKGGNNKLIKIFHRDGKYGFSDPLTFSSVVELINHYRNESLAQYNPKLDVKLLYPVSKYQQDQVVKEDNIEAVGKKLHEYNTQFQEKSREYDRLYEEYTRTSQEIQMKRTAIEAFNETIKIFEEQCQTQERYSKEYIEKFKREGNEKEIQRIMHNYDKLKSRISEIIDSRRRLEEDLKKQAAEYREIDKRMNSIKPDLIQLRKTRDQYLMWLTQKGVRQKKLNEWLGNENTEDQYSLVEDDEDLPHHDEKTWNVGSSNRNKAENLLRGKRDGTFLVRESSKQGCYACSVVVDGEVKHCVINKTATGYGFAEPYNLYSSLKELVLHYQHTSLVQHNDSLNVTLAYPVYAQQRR
test_description: PI3Kδ scintillation proximity assay
Type: biochemical
run_parameters: Table A3; scintillation proximity assay, recombinant human PI3Kδ
Where a name gives a salt, the structure may show the parent alone.

A selection of reference data follows.
| molecule | IC50 |
| --- | --- |
| Cc1ccc(C(O)(C(N)=O)C(F)(F)F)cc1-c1cnc(N)c(-n2cccn2)n1 (stereo not shown) | < 100 nM |
| Cc1ccc(C(O)(C(N)=O)C(F)(F)F)cc1-c1cnc(N)c(-c2cnn(CC(F)(F)F)c2)n1 (stereo not shown) [Example 75, trifluoroacetate] | < 100 nM |
| Cc1ccc(C(O)(C(N)=O)C(F)(F)F)cc1-c1cnc(N)c(-c2cncnc2)n1 (stereo not shown) [Example 81, trifluoroacetate] | 100 to 500 nM |
| Cc1ccc(C(O)(C(N)=O)C(F)(F)F)cc1-c1cnc(N)c(-c2ccc(C(C)(C)O)cc2)n1 (stereo not shown) [Example 91, trifluoroacetate] | < 100 nM |
| Cc1ncc(-c2nc(-c3cc(C(O)(C(N)=O)C(F)(F)F)ccc3C)cnc2N)o1 (stereo not shown) [Example 70, trifluoroacetate] | < 100 nM |

Item: CNC(=O)c1ccc(-c2nc(-c3cc(C(O)(C(N)=O)C(F)(F)F)ccc3C)cnc2N)cn1 (stereo not shown) [Example 80, bistrifluoroacetate] | System: PI3Kδ (p1106/p85a) Recombinant Human Protein (Homo sapiens (Human)) | IC50: 100 to 500 nM

The molecule Cc1ccc(C(O)(C(N)=O)C(F)(F)F)cc1-c1cnc(N)c(-c2cnc(C3CC3)s2)n1 (stereo not shown) [Example 84, trifluoroacetate] , tested on PI3Kδ (p1106/p85a) Recombinant Human Protein (Homo sapiens (Human)), showed IC50 of < 100 nM

The reported numbers originate from patent US20250388553A1.
